Where these numbers come from: ChEMBL document CHEMBL4184325

biological target: Receptor tyrosine-protein kinase erbB-4 (Homo sapiens); assay: Inhibition of recombinant human ErbB4 using Poly(Glu, Tyr) 4:1 as substrate after 1 hr by ELISA
Sequence (Q15303 whole entry): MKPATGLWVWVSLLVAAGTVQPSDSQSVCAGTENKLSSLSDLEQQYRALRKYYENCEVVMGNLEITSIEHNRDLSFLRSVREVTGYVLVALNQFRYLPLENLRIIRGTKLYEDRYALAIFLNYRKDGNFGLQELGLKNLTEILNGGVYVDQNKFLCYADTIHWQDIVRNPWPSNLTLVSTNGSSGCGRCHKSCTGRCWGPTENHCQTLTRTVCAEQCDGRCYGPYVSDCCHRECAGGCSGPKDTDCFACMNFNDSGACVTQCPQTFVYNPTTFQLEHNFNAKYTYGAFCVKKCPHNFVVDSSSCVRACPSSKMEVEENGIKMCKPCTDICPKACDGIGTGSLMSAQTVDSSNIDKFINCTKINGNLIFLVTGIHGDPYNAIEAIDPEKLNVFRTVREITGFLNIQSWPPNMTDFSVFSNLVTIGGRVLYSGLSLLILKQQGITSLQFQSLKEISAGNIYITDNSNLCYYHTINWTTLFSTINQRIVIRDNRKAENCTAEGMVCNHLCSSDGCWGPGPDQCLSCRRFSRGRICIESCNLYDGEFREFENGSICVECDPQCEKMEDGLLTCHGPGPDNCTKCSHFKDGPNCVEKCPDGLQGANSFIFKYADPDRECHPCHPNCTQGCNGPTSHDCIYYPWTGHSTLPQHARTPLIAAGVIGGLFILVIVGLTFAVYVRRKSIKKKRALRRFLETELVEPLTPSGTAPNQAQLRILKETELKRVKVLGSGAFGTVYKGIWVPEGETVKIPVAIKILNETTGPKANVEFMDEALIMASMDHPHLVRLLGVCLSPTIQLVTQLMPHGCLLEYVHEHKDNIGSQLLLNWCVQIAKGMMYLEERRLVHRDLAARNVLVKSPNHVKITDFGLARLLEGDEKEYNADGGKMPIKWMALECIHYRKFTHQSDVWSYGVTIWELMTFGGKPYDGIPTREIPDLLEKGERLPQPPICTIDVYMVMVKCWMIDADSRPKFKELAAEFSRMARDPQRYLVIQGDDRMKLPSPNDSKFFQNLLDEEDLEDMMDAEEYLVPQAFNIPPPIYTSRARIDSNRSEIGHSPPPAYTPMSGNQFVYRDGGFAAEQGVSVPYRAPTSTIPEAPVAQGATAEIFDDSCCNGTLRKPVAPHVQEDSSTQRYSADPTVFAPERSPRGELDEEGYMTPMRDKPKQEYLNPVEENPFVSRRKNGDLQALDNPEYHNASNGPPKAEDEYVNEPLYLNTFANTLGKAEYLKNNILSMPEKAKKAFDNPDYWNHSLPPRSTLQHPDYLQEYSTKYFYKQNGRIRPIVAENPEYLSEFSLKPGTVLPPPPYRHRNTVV
Measured property: pIC50
Scale: pIC50 equals -log10([C]), with [C] in mol/L.

Input: Consider the compound shown here: C=CC(=O)N[C@@H]1Cn2c(c(-c3ccc(Oc4ccccc4)cc3)c3c(N)ncnc32)C1=C What is its recorded pIC50?
Output: 9.22

---

target: Epidermal growth factor receptor (Homo sapiens); experiment: Inhibition of recombinant human EGFR using Poly(Glu, Tyr) 4:1 as substrate after 1 hr by ELISA
Sequence (P00533 whole entry): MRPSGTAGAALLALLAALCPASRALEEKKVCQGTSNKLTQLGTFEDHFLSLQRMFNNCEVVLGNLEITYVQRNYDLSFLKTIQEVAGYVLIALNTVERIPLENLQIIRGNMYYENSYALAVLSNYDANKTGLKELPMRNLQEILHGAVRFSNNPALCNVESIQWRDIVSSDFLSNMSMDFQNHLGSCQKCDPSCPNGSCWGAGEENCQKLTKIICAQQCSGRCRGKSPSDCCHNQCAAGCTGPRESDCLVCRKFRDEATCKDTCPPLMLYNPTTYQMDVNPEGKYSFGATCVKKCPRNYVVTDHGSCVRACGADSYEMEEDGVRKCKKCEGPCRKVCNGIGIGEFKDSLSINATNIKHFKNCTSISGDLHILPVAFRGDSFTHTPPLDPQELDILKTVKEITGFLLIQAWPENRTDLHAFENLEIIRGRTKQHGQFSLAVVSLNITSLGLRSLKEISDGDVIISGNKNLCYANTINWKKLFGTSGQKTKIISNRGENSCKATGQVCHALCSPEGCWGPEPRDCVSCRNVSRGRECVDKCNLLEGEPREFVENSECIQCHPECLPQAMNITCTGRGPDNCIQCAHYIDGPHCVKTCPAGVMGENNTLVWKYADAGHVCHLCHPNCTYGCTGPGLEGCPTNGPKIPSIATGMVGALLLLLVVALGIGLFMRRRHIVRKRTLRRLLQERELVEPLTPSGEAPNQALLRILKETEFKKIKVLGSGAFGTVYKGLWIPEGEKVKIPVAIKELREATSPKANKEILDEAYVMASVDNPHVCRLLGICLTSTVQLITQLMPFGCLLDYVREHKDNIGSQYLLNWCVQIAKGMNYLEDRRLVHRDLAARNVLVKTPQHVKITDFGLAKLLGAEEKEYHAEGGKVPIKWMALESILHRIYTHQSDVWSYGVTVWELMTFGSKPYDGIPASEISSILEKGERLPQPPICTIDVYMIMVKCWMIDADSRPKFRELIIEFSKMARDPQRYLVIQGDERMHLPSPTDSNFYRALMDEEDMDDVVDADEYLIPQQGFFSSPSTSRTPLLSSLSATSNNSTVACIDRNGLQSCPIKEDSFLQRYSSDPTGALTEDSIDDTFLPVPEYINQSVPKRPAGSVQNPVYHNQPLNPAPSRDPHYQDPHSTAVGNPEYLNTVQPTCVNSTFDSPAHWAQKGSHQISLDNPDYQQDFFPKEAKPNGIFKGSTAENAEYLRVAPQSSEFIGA
Measured property: pIC50
Scale: pIC50 equals -log10([C]), with [C] in mol/L.

Input: Consider the compound shown here: C=CC(=O)N[C@@H]1Cn2c(c(-c3ccc(Oc4ccccc4)cc3)c3c(N)ncnc32)C1=C What is its recorded pIC50?
Output: 8.89
